# assay name: Circular dichroism spectroscopy (alpha-helical content, R-value)
# Assay type: physicochemical
# experimental context: ratio between the molar ellipticity values at 222 and 208 nm; 20 µM peptide in 10 mM phosphate buffer (pH 7.0)
Could you please report measured R-value, Phosphate Buffer for the items listed next?
One number for each entry.

Reference set (4 entries):
substance: KKKK-GLRKRLRKFRNKIKEK [CB4-sC18, sC18 conjugate bearing four meta-carborane clusters]
reported value: 0.73
--
substance: KKK-GLRKRLRKFRNKIKEK [CB3-sC18, sC18 conjugate bearing three meta-carborane clusters]
reported value: 0.56
--
substance: KKKK‐LLIILRRRIRKQAHAHSK [CB4-pVEC, pVEC conjugate bearing four meta-carborane clusters]
reported value: 0.92
--
substance: KK‐LLIILRRRIRKQAHAHSK [CB2-pVEC, pVEC conjugate bearing two meta-carborane clusters]
reported value: 0.84

Can you give me R-value, Phosphate Buffer for all of these, one by one?
1. LLIILRRRIRKQAHAHSK [pVEC, VE-cadherin-derived cell-penetrating peptide, reference compound]
2. KKK‐LLIILRRRIRKQAHAHSK [CB3-pVEC, pVEC conjugate bearing three meta-carborane clusters]
3. CB-KKKK-GLRKRLRKFRNKIKEK [CB5-sC18, sC18 conjugate bearing five meta-carborane clusters]
4. K‐LLIILRRRIRKQAHAHSK [CB1-pVEC, pVEC conjugate bearing one meta-carborane cluster]
5. CB‐KKKK‐LLIILRRRIRKQAHAHSK [CB5-pVEC, pVEC conjugate bearing five meta-carborane clusters]

**A:**
[0.37, 0.99, 0.87, 0.57, 0.79]

----------
Could you please report measured % of alpha helix, 50% TFE for the items listed next?
# assay name: Circular dichroism spectroscopy (alpha-helical content, R-value)
# Assay type: physicochemical
# experimental context: CD, 20 µM peptide in 10 mM phosphate buffer (pH 7.0) with 50% TFE (v/v); calculated per ref 31
# Protocol: Conjugates were dissolved in 10 mM phosphate buffer (pH 7.0), either alone or supplemented with 50% TFE (v/v), to a final concentration of 20 µM. CD spectra of all conjugates were recorded from 180–260 nm (0.5 nm intervals) on a J-715 spectropolarimeter (JASCO, Pfungstadt, Germany) in an N2 atmosphere. To find out more, we performed CD spectroscopy for all peptides solved either in phosphate buffer or in phosphate buffer supplemented with trifluoroethanol (TFE), respectively. […]
Give bare numbers, in %.

Can you give me % of alpha helix, 50% TFE for all of these, one by one?
1. CB-KKKK-GLRKRLRKFRNKIKEK [CB5-sC18, sC18 conjugate bearing five meta-carborane clusters]
2. LLIILRRRIRKQAHAHSK [pVEC, VE-cadherin-derived cell-penetrating peptide, reference compound]
3. KK‐LLIILRRRIRKQAHAHSK [CB2-pVEC, pVEC conjugate bearing two meta-carborane clusters]
4. K-GLRKRLRKFRNKIKEK [CB1-sC18, sC18 conjugate bearing one meta-carborane (CB) cluster]

**A:**
1. 50.15
2. 48.60
3. 51.36
4. 50.68
